B1: library; a variant is named by its letters at N, in order (parent)
chain: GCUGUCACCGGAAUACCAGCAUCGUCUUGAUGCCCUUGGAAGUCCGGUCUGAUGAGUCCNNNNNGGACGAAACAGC

variants of: B1; experiment: normalized RNA/DNA level without ligand (relative to sTRSVctl = 100) (log10 (% of sTRSVctl)); higher = less ribozyme self-cleavage, higher mRNA level; details: HEK293T, reporter: mCherry (pCS4076), ligand present: no
MEASURED_PROPERTY: normalized RNA/DNA level without ligand (log10)
Number, no unit, nothing else.

Take a look at these entries with their results.
[
  {
    "MUTANT_ID": "CCAUA",
    "EXPERIMENTAL_VALUE": 1.5
  },
  {
    "MUTANT_ID": "AUGCG",
    "EXPERIMENTAL_VALUE": 1.87
  },
  {
    "MUTANT_ID": "CAACA",
    "EXPERIMENTAL_VALUE": 1.53
  }
]

// query normalized RNA/DNA level without ligand (log10) value for entry AUACA
1.85

Entry UAAUU has what normalized RNA/DNA level without ligand (log10)?
1.84
